Target: SHP2 C‐SH2 domain (Homo sapiens)
Construct: SHP2 N-SH2 domain (1–105), C-SH2 domain (106–220), PTP domain (224–541) and; His6 (pETM22 vector) (N, cleaved yes); made in house; host or cells: E. coli BL21(DE3)
Sequence (Q06124 106-220): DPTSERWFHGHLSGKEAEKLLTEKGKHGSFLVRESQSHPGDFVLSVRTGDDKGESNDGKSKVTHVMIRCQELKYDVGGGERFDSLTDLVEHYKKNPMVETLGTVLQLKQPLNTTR
Assay: Fluorescence polarization (FP) binding assay, SHP2 C-SH2 domain
Conditions: 100 nM FAM-labelled peptide, increasing C-SH2 protein, 50 mM HEPES pH 7.5, 150 mM NaCl, 1 mM EDTA, 0.05% Tween 20, FP at 10 min, three independent experiments in technical triplicates, read-out: K D ± SEM, C‐SH2 (FP)
pKd: −log10 of the molar value. Non-standard residues stand in square brackets, D forms with d. Residues, ends and D or L forms follow the SMILES beside them. *: point of attachment. 5FAM = O=C1OC2(c3ccc(O)cc3Oc3cc(O)ccc32)c2ccc(C(=O)*)cc21; Pmp = N[C@@H](Cc1ccc(CP(=O)(O)O)cc1)C(=O)O; pY = N[C@@H](Cc1ccc(OP(=O)(O)O)cc1)C(=O)O
The threshold is inclusive: pKd of exactly 7 counts as Criterion met; values below receive Criterion not met.

Exercise: Is pKd at least 7? Consider CC[C@H](C)[C@H](NC(=O)[C@@H](NC(=O)[C@H](C)NC(=O)[C@H](Cc1ccc(CP(=O)(O)O)cc1)NC(=O)[C@H](CCC(=O)O)NC(=O)[C@@H](NC(=O)[C@H](CCC(N)=O)NC(=O)[C@H](CCC(=O)O)NC(=O)c1ccc2c(c1)C(=O)OC21c2ccc(O)cc2Oc2cc(O)ccc21)[C@@H](C)O)[C@@H](C)O)C(=O)N[C@H](C(=O)N[C@@H](Cc1ccccc1)C(=O)N1CCC[C@H]1C(N)=O)C(C)C [FAM‐ITSM(Pmp)] (5FAM-EQTE[Pmp]ATIVFP-NH2)
Solution: Criterion not met

Exercise: Is pKd at least 7? Consider CC[C@H](C)[C@H](NC(=O)[C@@H](NC(=O)[C@H](C)NC(=O)[C@H](Cc1ccc(OP(=O)(O)O)cc1)NC(=O)[C@H](CCC(=O)O)NC(=O)[C@@H](NC(=O)[C@H](CCC(N)=O)NC(=O)c1ccc2c(c1)C(=O)OC21c2ccc(O)cc2Oc2cc(O)ccc21)[C@@H](C)O)[C@@H](C)O)C(=O)N[C@H](C(=O)N[C@@H](Cc1ccccc1)C(=O)N1CCC[C@H]1C(N)=O)C(C)C [compound 11] (5FAM-QTE[pY]ATIVFP-NH2)
Solution: Criterion met

Exercise: Is pKd at least 7? Consider CC[C@H](C)[C@H](NC(=O)[C@@H](NC(=O)[C@H](C)NC(=O)[C@H](Cc1ccc(OP(=O)(O)O)cc1)NC(=O)[C@H](CCC(=O)O)NC(=O)[C@H](CCC(=O)O)NC(=O)[C@H](CCCCN)NC(=O)c1ccc2c(c1)C(=O)OC21c2ccc(O)cc2Oc2cc(O)ccc21)[C@@H](C)O)C(=O)N[C@@H](CCCCN)C(=O)N[C@@H](Cc1c[nH]cn1)C(=O)N1CCC[C@H]1C(N)=O [compound 20] (5FAM-KEE[pY]ATIKHP-NH2)
Solution: Criterion not met

Others:
Exercise: Is pKd at least 7? Consider CC(C)[C@H](NC(=O)[C@@H](NC(=O)[C@H](C)NC(=O)[C@H](Cc1ccc(OP(=O)(O)O)cc1)NC(=O)[C@H](CCC(=O)O)NC(=O)[C@@H](NC(=O)[C@H](CCC(N)=O)NC(=O)[C@H](CCC(=O)O)NC(=O)c1ccc2c(c1)C(=O)OC21c2ccc(O)cc2Oc2cc(O)ccc21)[C@@H](C)O)[C@@H](C)O)C(=O)N[C@@H](CCCCN)C(=O)N[C@@H](Cc1ccccc1)C(=O)N1CCC[C@H]1C(N)=O [compound 10] (5FAM-EQTE[pY]ATVKFP-NH2)
Solution: Criterion not met

Exercise: Is pKd at least 7? Consider CC[C@H](C)[C@H](NC(=O)[C@@H](NC(=O)[C@H](C)NC(=O)[C@H](Cc1ccc(OP(=O)(O)O)cc1)NC(=O)[C@H](CCC(=O)O)NC(=O)[C@@H](NC(=O)[C@H](CCC(N)=O)NC(=O)[C@H](CCC(=O)O)NC(=O)c1ccc2c(c1)C(=O)OC21c2ccc(O)cc2Oc2cc(O)ccc21)[C@@H](C)O)[C@@H](C)O)C(=O)N[C@H](C(=O)N[C@@H](Cc1ccccc1)C(=O)N1CCC[C@H]1C(N)=O)C(C)C [FAM‐ITSM(pTyr), reference compound] (5FAM-EQTE[pY]ATIVFP-NH2)
Solution: Criterion met

This collection of values is drawn from paper PMC12118337.
